reported.property: melting point

Request: May I ask what melting point has been recorded for `Cc1cc(C)nc(NC(=O)NS(=O)(=O)c2ccccc2OS(=O)(=O)N(C)C)n1` ?
Result: 195 to 196 °C

###

Here, each record is paired with measured melting point data.

| molecule | melting point |
| --- | --- |
| CC(C)(C)OCC(NC(=O)c1ccc2c(Cl)cnc(NC(=N)N)c2c1)C(=O)OC(C)(C)C (racemic) | 215 to 219 °C |
| COc1ccc(Cl)cc1NC(=O)CN1CCN(CC(=O)N2CC=C(c3cccc(C(F)(F)F)c3)n3ncc(C#N)c32)CC1 | 166 to 168 °C |

Request: Which melting point value belongs to `O=C1c2ccccc2C(=O)N1Cc1noc(-c2ncn3c2[C@@H]2CCN2C(=O)c2c-3ccc(F)c2Cl)n1` ?
Result: 292 to 294 °C

Request: melting point for `Sc1nc2ccccc2n1CCCN1CCN(C(c2ccccc2)c2ccccc2)CC1` ?
Result: 182 °C

Request: # get_value(readout='melting point', item= `CCOC(=O)COc1cc2ccsc2c(Cl)c1Cl` )
Result: 92 to 93 °C

Request: What value of melting point has been recorded for this entry: CC(=O)OCC1OC(c2ccc(F)c(Cc3ccc(Br)s3)c2)C(OC(C)=O)C(OC(C)=O)C1OC(C)=O (stereo not drawn)
Result: 127 to 129 °C

Request: So what's the measured melting point for this one? Cc1oc(-c2ccccc2)nc1C(O)COc1ccc(CC2SC(=N)NC2=O)cc1 (stereo not drawn)
Result: 238 to 239 °C

Request: Reported melting point for `O=C(Nc1ccc(F)c(C(F)(F)F)c1)c1csc2cc(Oc3cc(CO)ncn3)ccc12` : what is it?
Result: 138 to 140 °C
